target: high-affinity (BLT1) LTB4 receptor (Homo sapiens, UniProt Q15722); construct: expressed in transfected cells; assay: FLIPR calcium release assay (LTB4-induced calcium mobilization); format: cell-based; settings: CHO-K1 cells expressing BLT1, 8 nM LTB4; n of 2; read-out: inhibition of LTB4-induced calcium mobilization relative IC50
Sequence (Q15722 whole entry): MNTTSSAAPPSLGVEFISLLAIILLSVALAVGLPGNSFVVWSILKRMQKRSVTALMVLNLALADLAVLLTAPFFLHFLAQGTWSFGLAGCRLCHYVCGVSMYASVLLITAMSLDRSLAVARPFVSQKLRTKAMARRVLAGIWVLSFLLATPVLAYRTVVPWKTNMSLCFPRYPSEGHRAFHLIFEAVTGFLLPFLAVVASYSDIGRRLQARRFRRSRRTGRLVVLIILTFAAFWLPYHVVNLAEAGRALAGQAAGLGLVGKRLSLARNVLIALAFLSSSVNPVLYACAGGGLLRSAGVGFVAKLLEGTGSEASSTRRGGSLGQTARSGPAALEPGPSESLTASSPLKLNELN
readoutKind: pIC50
FYI, pIC50 means -log10 of a concentration in mol per litre.

State its pIC50: CCCc1c(NC(=O)CC(C)(C)C(=O)[O-])cccc1OCCCOc1cc(O)c(-c2ccc(F)cc2)cc1CC.[Na+] 8.19

* * *

test: Exposure (AUC) in the LDLr KO mouse atherosclerosis study; settings: male, LDLr KO (JAX #002207), in vivo, LDLr KO mice, 10 mg/kg BID oral gavage
readoutKind: AUC (ng·h/mL)
Just the number in ng·h/mL, nothing appended.

For CCCc1c(NC(=O)CC(C)(C)C(=O)[O-])cccc1OCCCOc1cc(O)c(-c2ccc(F)cc2)cc1CC.[Na+] , write its AUC. 5380

* * *

assay: Exposure (AUC) in the LDLr KO mouse atherosclerosis study; settings: male, LDLr KO (JAX #002207), in vivo, LDLr KO mice, 30 mg/kg BID oral gavage
readoutKind: AUC (ng·h/mL)
Express it in ng·h/mL; write the number only.

Note down AUC recorded for CCCc1c(NC(=O)CC(C)(C)C(=O)[O-])cccc1OCCCOc1cc(O)c(-c2ccc(F)cc2)cc1CC.[Na+] [Example 2] 12800

* * *

target: PPARα (Homo sapiens, UniProt Q07869); test: PPAR alpha binding assay (SPA); conditions: tritiated GW2331, n=3, read-out: Ki PPAR α binding
Sequence (Q07869 whole entry): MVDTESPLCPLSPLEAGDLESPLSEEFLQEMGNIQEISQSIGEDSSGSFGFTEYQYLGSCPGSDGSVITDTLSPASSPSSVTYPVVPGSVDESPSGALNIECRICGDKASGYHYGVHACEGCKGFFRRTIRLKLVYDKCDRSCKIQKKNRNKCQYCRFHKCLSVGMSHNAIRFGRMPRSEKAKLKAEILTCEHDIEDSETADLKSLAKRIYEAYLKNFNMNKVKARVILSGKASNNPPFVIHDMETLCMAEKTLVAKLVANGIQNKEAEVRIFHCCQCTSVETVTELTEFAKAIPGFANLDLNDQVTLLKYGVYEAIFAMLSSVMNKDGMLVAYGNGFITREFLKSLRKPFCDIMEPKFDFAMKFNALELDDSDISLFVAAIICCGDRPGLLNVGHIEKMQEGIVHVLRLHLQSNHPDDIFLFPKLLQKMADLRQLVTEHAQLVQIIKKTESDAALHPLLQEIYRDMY
Sequence (P19793 whole entry partner): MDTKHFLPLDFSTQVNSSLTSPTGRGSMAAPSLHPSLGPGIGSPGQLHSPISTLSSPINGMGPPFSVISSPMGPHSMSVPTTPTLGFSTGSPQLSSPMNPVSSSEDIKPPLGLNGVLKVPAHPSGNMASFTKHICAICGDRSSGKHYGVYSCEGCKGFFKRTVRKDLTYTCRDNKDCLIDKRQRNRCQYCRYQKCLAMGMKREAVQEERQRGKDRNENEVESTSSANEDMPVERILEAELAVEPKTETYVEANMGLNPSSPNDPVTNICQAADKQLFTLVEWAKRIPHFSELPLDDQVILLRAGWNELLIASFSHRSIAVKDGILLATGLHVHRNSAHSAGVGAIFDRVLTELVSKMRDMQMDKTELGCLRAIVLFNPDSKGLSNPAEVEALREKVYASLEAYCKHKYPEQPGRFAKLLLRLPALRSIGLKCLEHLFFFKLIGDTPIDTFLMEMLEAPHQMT
pKi: −log10 of the molar value.
readoutKind: pKi

Return pKi (reported value) for this compound: CCCc1c(NC(=O)CC(C)(C)C(=O)[O-])cccc1OCCCOc1cc(O)c(-c2ccc(F)cc2)cc1CC.[Na+] ~6.21

* * *

target: hBLT2 (Homo sapiens, UniProt Q9NPC1); construct: expressed in transfected cells; membrane preparation; assay: [3H]-LTB4 binding assay in hBLT2 containing membranes; details: [3H]-LTB4 displacement, hBLT2/CHO-K1 membranes; read-out: absolute IC50
Sequence (Q9NPC1 whole entry): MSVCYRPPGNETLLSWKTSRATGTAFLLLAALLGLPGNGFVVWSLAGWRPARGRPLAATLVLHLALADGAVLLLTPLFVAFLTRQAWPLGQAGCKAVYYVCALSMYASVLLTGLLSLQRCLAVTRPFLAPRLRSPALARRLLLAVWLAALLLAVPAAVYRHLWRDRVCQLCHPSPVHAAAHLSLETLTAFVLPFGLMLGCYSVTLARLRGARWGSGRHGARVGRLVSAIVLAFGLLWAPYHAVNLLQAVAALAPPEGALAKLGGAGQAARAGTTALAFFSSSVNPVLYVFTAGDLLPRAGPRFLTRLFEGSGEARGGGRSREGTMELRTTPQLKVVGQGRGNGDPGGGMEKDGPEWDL
readoutKind: pIC50
Field pIC50 (float): negative decimal logarithm of the concentration in molar.

Report pIC50, nothing else, for this compound: CCCc1c(NC(=O)CC(C)(C)C(=O)[O-])cccc1OCCCOc1cc(O)c(-c2ccc(F)cc2)cc1CC.[Na+] 4.78

* * *

molecular target: hBLT2 (Homo sapiens, UniProt Q9NPC1); construct: expressed in transfected cells; membrane preparation; assay: [3H]-LTB4 binding assay in hBLT2 containing membranes; conditions: [3H]-LTB4 displacement, hBLT2/CHO-K1 membranes; read-out: relative IC50
readoutKind: IC50 (µM)
Write the number in µM without appending the unit.

Answer with the recorded IC50 of CCCc1c(NC(=O)CC(C)(C)C(=O)[O-])cccc1OCCCOc1cc(O)c(-c2ccc(F)cc2)cc1CC.[Na+] only. 15.4

Each recorded value in this set is attributed to patent US9187411B2.
